FYI, the data here is from patent US20090181369A1.

System: BaF3 cells expressing FNTB P152S
Test: cells
Settings: Mus musculus, BaF3, 336 h, read-out: Cellular IC50
Reported metric: IC50 (µM)

- Query smiles: "NC(=O)N1CCC(CC(=O)N2CCC([C@H]3c4ncc(Br)cc4CCc4cc(Cl)cc(Br)c43)CC2)CC1"
  Measure unit: "µM"
  Assay result: 0.3

----------
System: BaF3 cells expressing FNTB G241E
Experiment: cells
Settings: Mus musculus, BaF3, 336 h, read-out: Cellular IC50
pIC50: −log10 of the molar value.
Reported metric: pIC50

- Compound: "NC(=O)N1CCC(CC(=O)N2CCC([C@H]3c4ncc(Br)cc4CCc4cc(Cl)cc(Br)c43)CC2)CC1 [Lonafarnib]"
  Assay result: 6.22
